Quick list: % Max Activity per entry.
Biological target: ChemR23 (CMKLR1) (Homo sapiens, UniProt Q99788)
Construct: host or cells: CHO
Sequence (Q99788 whole entry): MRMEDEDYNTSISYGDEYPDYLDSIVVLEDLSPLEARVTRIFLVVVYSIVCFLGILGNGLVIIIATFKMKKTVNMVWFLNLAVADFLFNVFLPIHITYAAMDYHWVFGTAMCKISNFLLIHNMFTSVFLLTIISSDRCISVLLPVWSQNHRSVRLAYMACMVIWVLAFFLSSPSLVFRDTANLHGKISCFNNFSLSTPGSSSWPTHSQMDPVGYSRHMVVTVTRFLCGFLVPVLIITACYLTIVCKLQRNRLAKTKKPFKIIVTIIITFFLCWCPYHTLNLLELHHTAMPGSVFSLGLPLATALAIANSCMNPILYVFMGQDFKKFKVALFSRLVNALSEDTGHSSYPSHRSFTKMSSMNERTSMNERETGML
Test: PathHunter β-Arrestin assay, ChemR23 (CMKLR1), agonist and antagonist mode
Assay type: cell-based
Settings: ChemR23; agonist mode
Peptide text beside a SMILES is read from it.
endpointLabel: % Max Activity (%)

* CC(C)C[C@H](NC(=O)[C@H](Cc1ccccc1)NC(=O)[C@H](Cc1ccc(O)cc1)NC(=O)CNC(=O)[C@H](Cc1c[nH]cn1)NC(=O)[C@@H]1CCCN1C(=O)[C@H](CC(=O)O)NC(=O)[C@H](CCC(=O)O)NC(=O)CNC(=O)[C@H](C)N)C(=O)N1CCC[C@H]1C(=O)NCC(=O)N[C@@H](CCC(N)=O)C(=O)N[C@@H](Cc1ccccc1)C(=O)N[C@@H](C)C(=O)O [mC15] (H-AGEDPHGYFLPGQFA-OH; N-terminus and C-terminus assumed) | 0.4
* C[C@H](N)C(=O)NCC(=O)N[C@@H](CCC(=O)O)C(=O)N[C@@H](CC(=O)O)C(=O)N1CCC[C@H]1C(=O)N[C@@H](Cc1c[nH]cn1)C(=O)N[C@@H](CO)C(=O)N[C@@H](Cc1ccccc1)C(=O)N[C@@H](Cc1ccc(O)cc1)C(=O)N[C@@H](Cc1ccccc1)C(=O)N1CCC[C@H]1C(=O)NCC(=O)N[C@@H](CCC(N)=O)C(=O)N[C@@H](Cc1ccccc1)C(=O)N[C@@H](C)C(=O)O [C15 (human)] (H-AGEDPHSFYFPGQFA-OH; N-terminus and C-terminus assumed) | 0.8
* C[C@H](N)C(=O)NCC(=O)N[C@@H](CCC(=O)O)C(=O)N[C@@H](CC(=O)O)C(=O)N1CCC[C@H]1C(=O)N[C@@H](Cc1c[nH]cn1)C(=O)N[C@@H](CO)C(=O)N[C@@H](Cc1ccccc1)C(=O)N[C@@H](Cc1ccc(O)cc1)C(=O)N[C@@H](Cc1ccccc1)C(=O)N1CCC[C@H]1C(=O)NCC(=O)N[C@@H](CCC(N)=O)C(=O)N[C@@H](Cc1ccccc1)C(=O)N[C@@H](C)C(=O)N[C@@H](Cc1ccccc1)C(=O)O [C16 (human)] (H-AGEDPHSFYFPGQFAF-OH; N-terminus and C-terminus assumed) | 98.6
* C[C@H](N)C(=O)NCC(=O)N[C@@H](CCC(=O)O)C(=O)N[C@@H](CC(=O)O)C(=O)N1CCC[C@H]1C(=O)N[C@@H](Cc1c[nH]cn1)C(=O)N[C@@H](CO)C(=O)N[C@@H](Cc1ccccc1)C(=O)N[C@@H](Cc1ccc(O)cc1)C(=O)N[C@@H](Cc1ccccc1)C(=O)N1CCC[C@H]1C(=O)NCC(=O)N[C@@H](CCC(N)=O)C(=O)N[C@@H](Cc1ccccc1)C(=O)N[C@@H](C)C(=O)N[C@@H](Cc1ccccc1)C(=O)N[C@@H](CO)C(=O)O [C17 (human)] (H-AGEDPHSFYFPGQFAFS-OH; N-terminus and C-terminus assumed) | 67.5
